- Test system: anti-EBNA antibodies
- assayInfo: ELISA with polypeptide as solid phase antigen, detecting anti-polypeptide antibodies in sera
- Assay type: binding, human
- conditionSummary: serum SB pre-mononucleosis; dilution 1:20
Residues, ends and D or L forms follow the SMILES beside them.
valueKind: OD405 × 10^3 obtained with patient antibodies to polypeptide (OD405 × 10^3)

{"columns": ["molecule", "unitsLabel", "val"],
 "data": [
  ["C[C@H](NC(=O)CNC(=O)CNC(=O)[C@H](C)NC(=O)CNC(=O)[C@H](C)NC(=O)CNC(=O)[C@H](C)NC(=O)CNC(=O)[C@@H](NC(=O)CNC(=O)CNC(=O)[C@H](Cc1c[nH]cn1)NC(=O)[C@@H](NC(=O)CNC(=O)[C@@H](N)CCCCN)[C@@H](C)O)[C@@H](C)O)C(=O)NCC(=O)N[C@@H](C)C(=O)NCC(=O)O [Polypeptide P27] (H-KGTHGGTGAGAGAGGAGAG-OH)", "OD405 × 10^3", 11]
]}

====

- assayInfo: Circular dichroism spectroscopy of polypeptides in phosphate buffered saline
- Format: physicochemical
- conditionSummary: 1 mg/ml
Residues, ends and D or L forms follow the SMILES beside them.
valueKind: Conformation indicated by circular dichroism spectrum

{"columns": ["compound", "val"],
 "data": [
  ["C[C@H](NC(=O)CNC(=O)CNC(=O)CNC(=O)[C@H](C)NC(=O)CNC(=O)[C@H](C)NC(=O)CNC(=O)CNC(=O)[C@H](C)NC(=O)CNC(=O)CNC(=O)[C@H](C)NC(=O)CNC(=O)CN)C(=O)NCC(=O)O [Polypeptide F14] (H-GGAGGAGGAGAGGGAG-OH)", "very similar spectra"],
  ["C[C@H](NC(=O)CNC(=O)CNC(=O)[C@H](C)NC(=O)CNC(=O)[C@H](C)NC(=O)CNC(=O)[C@H](C)NC(=O)CNC(=O)[C@@H](NC(=O)CNC(=O)CNC(=O)[C@H](Cc1c[nH]cn1)NC(=O)[C@@H](NC(=O)CNC(=O)[C@@H](N)CCCCN)[C@@H](C)O)[C@@H](C)O)C(=O)NCC(=O)N[C@@H](C)C(=O)NCC(=O)O [Polypeptide P27] (H-KGTHGGTGAGAGAGGAGAG-OH)", "very similar spectra"],
  ["C[C@H](NC(=O)CNC(=O)CNC(=O)[C@H](C)NC(=O)CNC(=O)[C@H](C)NC(=O)CNC(=O)CNC(=O)CN)C(=O)NCC(=O)N[C@@H](C)C(=O)NCC(=O)NCC(=O)NCC(=O)NCC(=O)N[C@@H](CCCNC(=N)N)C(=O)O [Polypeptide P60] (H-GGGAGAGGAGAGGGGR-OH)", "very similar spectra"]
]}

====

- Test system: anti-EBNA antibodies
- assayInfo: ELISA with polypeptide as solid phase antigen, detecting anti-polypeptide antibodies in sera
- Type: binding, human
- conditionSummary: serum SB pre-mononucleosis; dilution 1:20
Residues, ends and D or L forms follow the SMILES beside them.
valueKind: OD405 × 10^3 obtained with patient antibodies to polypeptide (OD405 × 10^3)

{"columns": ["molecule", "targetOrSystem", "unitsLabel", "val"],
 "data": [
  ["CSCC[C@H](NC(=O)[C@@H]1CCCN1C(=O)[C@H](CCCNC(=N)N)NC(=O)[C@H](CCCCN)NC(=O)[C@H](CCC(=O)O)NC(=O)CNC(=O)[C@H](CCCNC(=N)N)NC(=O)CNC(=O)[C@H](CCCNC(=N)N)NC(=O)CNC(=O)[C@H](CCCNC(=N)N)NC(=O)CNC(=O)[C@H](CCCNC(=N)N)NC(=O)[C@H](C)NC(=O)[C@@H](N)CCCNC(=N)N)C(=O)O [Polypeptide P89] (H-RARGRGRGRGEKRPM-OH)", "anti-EBNA antibodies", "OD405 × 10^3", 9],
  ["C[C@H](NC(=O)CNC(=O)CNC(=O)[C@H](C)NC(=O)CNC(=O)[C@H](C)NC(=O)CNC(=O)CNC(=O)CN)C(=O)NCC(=O)N[C@@H](C)C(=O)NCC(=O)NCC(=O)NCC(=O)NCC(=O)N[C@@H](CCCNC(=N)N)C(=O)O [Polypeptide P60] (H-GGGAGAGGAGAGGGGR-OH)", "anti-EBNA antibodies", "OD405 × 10^3", 51],
  ["C[C@H](N)C(=O)NCC(=O)N[C@@H](C)C(=O)NCC(=O)NCC(=O)NCC(=O)N[C@@H](C)C(=O)NCC(=O)NCC(=O)N[C@@H](C)C(=O)NCC(=O)N[C@@H](C)C(=O)NCC(=O)NCC(=O)NCC(=O)N[C@@H](C)C(=O)NCC(=O)NCC(=O)N[C@@H](C)C(=O)NCC(=O)O [Polypeptide P62] (H-AGAGGGAGGAGAGGGAGGAG-OH)", "anti-EBNA antibodies", "OD405 × 10^3", 13]
]}
